- Tested on: VZV
- EXPERIMENTAL_PROTOCOL: VZV antiviral assay (Table 2)
- Format: cell-based, varicella zoster virus
- ASSAY_SETUP: Human alphaherpesvirus 3
VALUE_KIND: IC50 (µg/mL)
Express the result in µg/mL but write the number alone.

Answered examples (3):
Query: Which IC50 is listed for CC(NC(=S)Nc1ccc(-c2nocc2Cc2ccc(F)cc2)cc1)c1ccc(F)cc1 (stereo not shown) ?
Result: 0.16

Query: Which IC50 is listed for CC(NC(=S)Nc1ccc(-c2nocc2CO)cc1)c1ccc(F)cc1 (stereo not shown) ?
Result: 2

Query: Which IC50 is listed for CC(NC(=S)Nc1ccc(-c2conc2-c2ccc(N(C)C)cc2)cc1)c1ccc(F)cc1 (stereo not shown) ?
Result: 0.34

In the following, a different compound is considered.
Query: Which IC50 is listed for CC(NC(=S)Nc1ccc(-c2conc2-c2ccccc2)cc1)c1ccc(F)cc1 (stereo not shown) ?
Result: 0.89
